target or system: Alpha-2C adrenergic receptor (Homo sapiens)
Sequence (P18825 whole entry): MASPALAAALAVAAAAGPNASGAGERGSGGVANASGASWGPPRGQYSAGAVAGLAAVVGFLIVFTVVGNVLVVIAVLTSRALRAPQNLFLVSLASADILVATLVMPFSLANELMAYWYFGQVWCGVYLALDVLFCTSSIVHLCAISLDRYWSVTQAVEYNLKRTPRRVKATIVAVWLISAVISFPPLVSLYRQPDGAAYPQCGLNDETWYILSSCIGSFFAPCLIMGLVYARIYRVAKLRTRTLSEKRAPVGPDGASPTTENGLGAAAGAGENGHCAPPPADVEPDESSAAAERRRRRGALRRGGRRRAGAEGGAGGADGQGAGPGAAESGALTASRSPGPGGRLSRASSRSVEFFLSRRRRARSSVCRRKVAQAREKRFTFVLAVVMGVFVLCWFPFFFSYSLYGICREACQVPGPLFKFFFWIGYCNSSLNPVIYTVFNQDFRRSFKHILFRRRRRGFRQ
test summary: Agonist activity at human alpha2C-adrenergic receptor
pEC50: −log10 of the molar value.
experimental readout: pEC50

INSERT INTO results (smi, reading) VALUES
  ('Cc1n[nH]c2cc(OCCNC[C@H](O)c3cccc(NS(C)(=O)=O)c3)ccc12', '< 5.00');

* * *

target or system: Alpha-1B adrenergic receptor (Homo sapiens)
Sequence (P35368 whole entry): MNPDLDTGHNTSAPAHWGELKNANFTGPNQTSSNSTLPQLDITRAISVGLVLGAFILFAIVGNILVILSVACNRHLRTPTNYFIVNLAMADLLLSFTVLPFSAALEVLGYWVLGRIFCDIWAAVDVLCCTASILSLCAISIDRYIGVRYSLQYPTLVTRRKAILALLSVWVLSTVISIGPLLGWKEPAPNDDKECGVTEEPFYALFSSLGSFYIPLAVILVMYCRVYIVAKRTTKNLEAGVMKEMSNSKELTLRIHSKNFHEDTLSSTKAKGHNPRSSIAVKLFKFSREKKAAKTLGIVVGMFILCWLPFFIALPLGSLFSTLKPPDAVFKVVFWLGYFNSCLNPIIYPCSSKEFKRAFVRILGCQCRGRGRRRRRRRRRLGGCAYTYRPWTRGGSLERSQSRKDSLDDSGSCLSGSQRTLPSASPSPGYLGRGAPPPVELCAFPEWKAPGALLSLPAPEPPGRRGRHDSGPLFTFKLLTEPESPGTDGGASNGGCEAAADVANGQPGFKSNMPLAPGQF
test summary: Agonist activity at human alpha1B-adrenergic receptor
pEC50: −log10 of the molar value.
experimental readout: pEC50

INSERT INTO results (smi, reading) VALUES
  ('Cc1n[nH]c2cc(OCCNC[C@H](O)c3cccc(NS(C)(=O)=O)c3)ccc12', '< 5.00');

* * *

target or system: Alpha-1A adrenergic receptor (Homo sapiens)
Sequence (whole entry): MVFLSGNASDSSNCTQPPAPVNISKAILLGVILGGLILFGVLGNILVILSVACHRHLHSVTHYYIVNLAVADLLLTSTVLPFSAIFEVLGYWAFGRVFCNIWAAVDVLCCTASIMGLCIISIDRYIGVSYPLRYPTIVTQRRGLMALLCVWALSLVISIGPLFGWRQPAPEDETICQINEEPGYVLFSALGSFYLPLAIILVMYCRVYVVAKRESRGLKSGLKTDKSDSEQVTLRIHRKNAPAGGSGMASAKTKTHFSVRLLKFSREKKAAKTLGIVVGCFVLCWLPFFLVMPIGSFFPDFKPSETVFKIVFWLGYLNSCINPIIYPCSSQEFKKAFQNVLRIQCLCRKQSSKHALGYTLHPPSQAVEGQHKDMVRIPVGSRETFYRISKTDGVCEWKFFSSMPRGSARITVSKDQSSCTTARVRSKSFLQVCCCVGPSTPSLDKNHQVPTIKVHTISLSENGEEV
test summary: Intrinsic activity at human alpha1A-adrenergic receptor expressed in HEK293 cells assessed as calcium flux by fluorescence assay relative to norepinephrine
Assay type: functional, cell-based
In this section, each of the molecules is paired with its reported Intrinsic activity.
experimental readout: Intrinsic activity (%)

INSERT INTO measurements (smi, experimental_readout, measure_unit, reading) VALUES
  ('CC(C)(C)c1n[nH]c2cc(OCCNC[C@H](O)c3cccc(NS(C)(=O)=O)c3)ccc12', 'Intrinsic activity', '%', 19),
  ('CC(C)c1n[nH]c2cc(OCCNC[C@H](O)c3cccc(NS(C)(=O)=O)c3)ccc12', 'Intrinsic activity', '%', 9.1),
  ('CS(=O)(=O)Nc1cccc([C@@H](O)CNCCOc2ccc3c(C4CCC4)n[nH]c3c2)c1', 'Intrinsic activity', '%', 4),
  ('COc1n[nH]c2cc(OCCNC[C@H](O)c3cccc(NS(C)(=O)=O)c3)ccc12', 'Intrinsic activity', '%', 60);

* * *

target or system: Beta-3 adrenergic receptor (Homo sapiens, UniProt P13945)
Sequence (P13945 whole entry, looked up): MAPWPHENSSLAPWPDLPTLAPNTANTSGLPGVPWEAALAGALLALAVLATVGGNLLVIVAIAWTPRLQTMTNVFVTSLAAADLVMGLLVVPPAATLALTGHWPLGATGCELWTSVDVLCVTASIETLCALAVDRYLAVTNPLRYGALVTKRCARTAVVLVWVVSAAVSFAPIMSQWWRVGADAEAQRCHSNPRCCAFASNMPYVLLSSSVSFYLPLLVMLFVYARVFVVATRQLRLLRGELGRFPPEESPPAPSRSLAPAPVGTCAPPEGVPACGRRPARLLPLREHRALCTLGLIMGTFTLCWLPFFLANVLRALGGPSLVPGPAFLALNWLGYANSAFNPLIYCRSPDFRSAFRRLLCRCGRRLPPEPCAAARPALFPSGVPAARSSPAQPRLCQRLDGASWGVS
test summary: Intrinsic activity at human beta3-adrenergic receptor expressed in CHO cells assessed as increase of cAMP level after 30 mins relative to isoproterenol
Format: functional, cell-based
experimental readout: Intrinsic activity (%)

INSERT INTO measurements (smi, measure_unit, reading) VALUES
  ('CS(=O)(=O)Nc1cccc([C@@H](O)CNCCOc2ccc3c(-c4ccccc4)n[nH]c3c2)c1', '%', 29),
  ('CS(=O)(=O)Nc1cccc([C@@H](O)CNCCOc2ccc3c(C4CCC4)n[nH]c3c2)c1', '%', 68),
  ('CS(=O)(=O)Nc1cccc([C@@H](O)CNCCOc2ccc3c(C(F)(F)F)n[nH]c3c2)c1', '%', 86),
  ('CC(C)(C)c1n[nH]c2cc(OCCNC[C@H](O)c3cccc(NS(C)(=O)=O)c3)ccc12', '%', 62),
  ('CS(=O)(=O)Nc1cccc([C@@H](O)CNCCOc2ccc3c(Cl)n[nH]c3c2)c1', '%', 89);

* * *

In this section, each of the compounds is paired with its reported Ratio EC50.
Species: Homo sapiens
test summary: Selectivity ratio of EC50 for human alpha1A-adrenergic receptor to EC50 for human beta3-adrenergic receptor
experimental readout: Ratio EC50

INSERT INTO measurements (smi, experimental_readout, reading) VALUES
  ('CC(C)(C)c1n[nH]c2cc(OCCNC[C@H](O)c3cccc(NS(C)(=O)=O)c3)ccc12', 'Ratio EC50', '> 30'),
  ('CC(C)c1n[nH]c2cc(OCCNC[C@H](O)c3cccc(NS(C)(=O)=O)c3)ccc12', 'Ratio EC50', '> 769'),
  ('CS(=O)(=O)Nc1cccc([C@@H](O)CNCCOc2ccc3c(C4CCC4)n[nH]c3c2)c1', 'Ratio EC50', '> 151');

Numbers sourced from ChEMBL document CHEMBL3600378.
